assay: protein stability index of a GFP-peptide fusion (yeast GPS) (PSI 1-4); higher = more stable; sorted into four equal gates, so the index is relative within each strain
experimental parameters: doa10∆
Consider the following sequences; for each one, report its protein stability index.

Some solved entries appear below for comparison.
{"columns": ["residue sequence", "protein stability index"],
 "data": [
  ["IPLGKNVVVKWQGKPVF [RIP1]", 3.36],
  ["DALEMQWRYLYDTQLKV [ARP7]", 1.75],
  ["SSNISPEQVYSLLLTNV [ARP7]", 2.27],
  ["SMNKELIAIVSKLLQTT [NUT1]", 1.88],
  ["MSGAAAASAAGYDRHIT [SCL1]", 3.08],
  ["ATPIPEEVQQAQTEIKL [RPS5]", 2.82]
]}

Each sequence below has a reported value. Please supply its protein stability index.
1. TDRLSTTQRRYEKAQKD [SMC1]
2. SYRNGMASYMLNSFAFE [YJR042W/NUP85]
3. IDLDNDEDDDEDVTDQE [DLS1]
4. NPIIENNVDNKYKSGGK [SSN2]
5. PNLIEKMVAKGLNDLVE [BRR2]
6. LLLTIQLLIIEKEWENA [SRP72]
7. QNSLLTNTHPNFLSKIR [SNF2]

Resp:
1: 3.33; 2: 2.29; 3: 3.21; 4: 2.92; 5: 2.51; 6: 1.42; 7: 2.96

Report protein stability index for every entry below.
1. DQAIVTETKRLVVIRFG [DIB1]
2. SAPIYVDIEYTRGRNII [RET1]

Resp:
[2, 2.42]

====

assay: protein stability index of a GFP-peptide fusion (yeast GPS) (PSI 1-4); higher = more stable; sorted into four equal gates, so the index is relative within each strain
experimental parameters: san1∆
Label class 1 when protein stability index is at or above 3; anything below gets class 0.

{"columns": ["residue sequence", "group"],
 "data": [
  ["KNQHRAASWYGSFNEMK [RMP1]", "class 1"],
  ["DNLGQTKIIMATNRPDT [RPT4]", "class 0"],
  ["LVDTPSNNTAATADTTH [NUT1]", "class 1"],
  ["RSWNEPSKSQTNFKEEI [YML103C/NUP188]", "class 1"],
  ["RLRQFNLQPISTPENVP [SMC4]", "class 0"],
  ["EDILQGIFNLLNTLFNP [NUT1]", "class 0"],
  ["MSVQDTKAVEFSMGHIR [MED4]", "class 1"],
  ["TYRSRAQQVPPYGVYHP [SIN4]", "class 0"]
]}

Req: Does the reported protein stability index for LTPNEIKELEHLHDAVF [SWP82] fall at or above the 3 mark?
Resp: class 1

====

assay: protein stability index of a GFP-peptide fusion (yeast GPS) (PSI 1-4); higher = more stable; sorted into four equal gates, so the index is relative within each strain
experimental parameters: doa10∆
I'd appreciate it if you could supply protein stability index values for the items below.
Give bare numbers.

Quick batch: protein stability index for everything below.
1. TVKLTEIVWTSSLIKAG [RPO31]
2. NGVRALFHSCTRIQYVD [GRR1]
3. STSKFESQYPIVTEQPS [SWP82]
4. SYLEERERQVNEKLADL [RPC53]
5. NEIKQLGSDSSDGHNSE [SRB4]
6. LENFKSYAGKQVVGPFH [SMC4]
7. PISKHSKQAIYTRATAS [RPS25A]

Resp:
[1.48, 2.08, 2.41, 3.2, 2.6, 3.04, 1.86]

Record protein stability index for all entries; do not skip any.
1. NKINSRNSWNFALIDYF [BRN1]
2. EMARTKKACIIFFDEID [RPT1]

Resp:
2.13
2.14

State the recorded protein stability index for every item in the following list.
1. YTAVDTAKLQMRRFILG [RPN14]
2. KGQGPFTLTYDIIETFS [YMR129W/POM152]
3. NNIKNGTNNISQHGQGN [YDL088C/ASM4]
4. RNKSAANNDINSLLSNF [YDL088C/ASM4]

Resp:
[1.35, 1.95, 2.93, 2.94]

Req: Fill in protein stability index for record EKINRMIIFLKNYDATD [CSI1]
Resp: 2.52
